- ASSAY REMARKS: ATG_NF_kB_CIS: Attagene CIS-FACTORIAL HepG2 Assay for human Nuclear Factor Kappa B (NF-kB) (AID 2282991)
- SETUP CONDITIONS: HepG2 Attagene cis-factorial NF-kB reporter mRNA; actives raise or lower the signal
- Procedure: ATG_CIS is a cell-based, multiplexed-readout assay that uses HepG2, a human liver cell line, with measurements taken at 24 hours after chemical dosing in a 24-well plate.ATG_NF_kB_CIS is one of 52 assay component(s) measured or calculated from the ATG_CIS assay. […] This assay endpoint, ATG_NF_kB_CIS, was analyzed with bidirectional fitting relative to DMSO as the negative control and baseline of activity. […]
Calls of active or inactive are those of the source. Rule for the calls: active = hit-call score of the fitted dose curve at least 0.9, where 1 is the maximum; inactive = score below 0.9.
Would you mind answering with one of these outcomes? 1.0 for active, 0.0 for inactive

CCCCC(CC)C(=O)OCCOCCOCCOC(=O)C(CC)CCCC (centres undefined)
0.0
CCCCCOC(C)=O
0.0
NC(=O)N1c2ccccc2C=Cc2ccccc21
0.0
NC(=O)NN=Cc1ccc([N+](=O)[O-])o1
0.0

Outcome logged for CCCCCCCCCC in this assay: 0.0

Each compound tested received a call. Report the one for Cc1ccc(S(=O)(=O)NC(=O)NN2CCCCCC2)cc1 . 0.0
